Where do these numbers come from? They come from patent US20040209318A1.

Please respond with reported Kd for every item in the list.
biological target: anti-vancomycin Fab fragment; assay: BIAcore solution competition, equilibrium dissociation constant; assay type: binding, mouse; details: in solution, 20 nM Fab fragment; read-out: Equilibrium Dissociation Constant (KD)

Guide cases for Kd, answers given:
{"COMPOUND": "CNC(CC(C)C)C(=O)NC1C(=O)NC(CC(N)=O)C(=O)NC2C(=O)NC3C(=O)NC(C(=O)NC(C(=O)O)c4cc(O)cc(O)c4-c4cc3ccc4O)C(O)c3ccc(c(Cl)c3)Oc3cc2cc(c3OC2OC(CO)C(O)C(O)C2OC2CC(C)(NC(=O)CCCN(C(=O)c3c4ccccc4[n+](CCCS(=O)(=O)[O-])c4ccccc34)S(=O)(=O)c3ccc(C)cc3)C(O)C(C)O2)Oc2ccc(cc2Cl)C1O (stereo not drawn) [compound 15]", "Kd": "1200 nM"}
{"COMPOUND": "CN[C@H](CC(C)C)C(=O)N[C@H]1C(=O)N[C@@H](CC(N)=O)C(=O)N[C@H]2C(=O)N[C@H]3C(=O)N[C@H](C(=O)N[C@H](C(=O)O)c4cc(O)cc(O)c4-c4cc3ccc4O)[C@H](O)c3ccc(c(Cl)c3)Oc3cc2cc(c3O[C@@H]2O[C@H](CO)[C@@H](O)[C@H](O)[C@H]2O)Oc2ccc(cc2Cl)[C@H]1O [compound 5, Desvancosaminylvancomycin]", "Kd": "587 nM"}

Next up:
Documented Kd of CC(C)CC(C(=O)NC1C(=O)NC(CC(N)=O)C(=O)NC2C(=O)NC3C(=O)NC(C(=O)NC(C(=O)O)c4cc(O)cc(O)c4-c4cc3ccc4O)C(O)c3ccc(c(Cl)c3)Oc3cc2cc(c3OC2OC(CO)C(O)C(O)C2OC2CC(C)(N)C(O)C(C)O2)Oc2ccc(cc2Cl)C1O)N(C)C(=O)CCCCC1SCC2NC(=O)NC21 (stereo not drawn) [compound 16] : ≤ 0.2 nM

###

biological target: anti-vancomycin Fab fragment; assay: BIAcore solution competition, equilibrium dissociation constant; type: binding, mouse; conditions: in solution, 20 nM Fab fragment; read-out: Equilibrium Dissociation Constant (KD)
pKd: −log10 of the molar value.
REPORTED METRIC: pKd

Documented pKd of CN[C@H](CC(C)C)C(=O)N[C@H]1C(=O)N[C@@H](CC(N)=O)C(=O)N[C@H]2C(=O)N[C@H]3C(=O)N[C@H](C(=O)N[C@H](C(=O)O)c4cc(O)cc(O)c4-c4cc3ccc4O)[C@H](O)c3ccc(c(Cl)c3)Oc3cc2cc(c3O[C@@H]2O[C@H](CO)[C@@H](O)[C@H](O)[C@H]2O[C@H]2C[C@](C)(N)[C@H](O)[C@H](C)O2)Oc2ccc(cc2Cl)[C@H]1O : ≥ 9.70
